This collection of values is drawn from PubChem BioAssay (NCI).

Tested on: DU-145 prostate
PROCEDURE TEXT: NCI tumour cell line growth inhibition, 48 h
# reported TGI; entries follow

compound="Cc1cccc(C(O)c2ccccn2)c1O (centres undefined)" assayed_target="DU-145 prostate" observed="> 100 µM"
compound=Clc1cccc(Cc2cn3cc(-c4ccccc4)nc3s2)c1 assayed_target="DU-145 prostate" observed="> 100 µM"
compound=CN(C)CCOc1cccc(NC2=C(Cl)C(=O)C(Nc3cccc(OCCN(C)C)c3)=C(Cl)C2=O)c1 assayed_target="DU-145 prostate" observed="1.27 µM"

Form field TGI, entry NNc1nc(-c2ccccn2)nc2sc3c(c12)CCCCCC3 : > 100 µM

Per the records, this compound ( COC(=O)/C(Br)=C/c1c[nH]c2ccc(Br)cc12 ) has TGI equal to 25.9 µM

Record CC(C)(C)C1=NN=C2c3ccccc3C(=O)C21 (centres undefined) , field TGI: > 100 µM
